# target.desc: HIV-1 envelope glycoprotein (gp120) of virus 92US727 (HIV-1)
# measurement.protocol: cell-based or functional assay
Each entry below carries its recorded Neutralization IC50.

// known answers, use as guide
| binder | experimental.result |
| --- | --- |
| 3.1.18-1 (antibody, human IgG1, kappa, V domains shown) VH: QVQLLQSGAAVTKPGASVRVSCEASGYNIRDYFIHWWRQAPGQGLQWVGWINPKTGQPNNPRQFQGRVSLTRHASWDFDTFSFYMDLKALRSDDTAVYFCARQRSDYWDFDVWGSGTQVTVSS VL: DIQMTQSPSSLSARVGDRATITCQANGYLNWYQQRRGKAPKLLIYDGSKLERGVPARFSGSRWGQEYHLTISSLQPEDVATYFCQVYEFFGPGTRLDLKR | > 9.8 µg/mL |
| 3.1.13-1 (antibody, human IgG1, kappa, V domains shown) VH: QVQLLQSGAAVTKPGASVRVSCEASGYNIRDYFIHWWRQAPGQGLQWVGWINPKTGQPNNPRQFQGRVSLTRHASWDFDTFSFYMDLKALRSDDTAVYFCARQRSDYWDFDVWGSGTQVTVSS VL: DIQMTQSPSSLSARVGDRATITCQANGYLNWYQQRRGKAPKLLIYDGSKLERGVPARFSGSRWGQEYILTISSLQPEDVATYFCQVYEFFGPGTRLDLKR | > 21 µg/mL |
| 2.3.17-1 (antibody, human IgG1, kappa, V domains shown) VH: QVHLSQSGAAVTKPGASVRVSCEASGYNIRDYFIHWWRQAPGQGLQWVGWINPKTGQPNNPRQFQGRVSLTRHASWDFDTFSFYMDLKAVRSDDTAIYFCARQRSDYWDFDVWGSGTQVTVSS VL: DIQMTQSPSSLSARVGDTATITCQANGYLNWYQQRRGKAPKLLIYDGSKLERGVPARFSGRRWGQEYHLTINNLQPEDVATYFCQVYEFFGPGTRLDLKR | > 50 µg/mL |
| 2.2.9-1 (antibody, human IgG1, kappa, V domains shown) VH: QVHLSQSGAAVTKPGASVRVSCEASGYKIRDHFIHWWRQAPGQGLQWVGWINPKTGQPNNPRQFQGRVSLTRHASWDFDTFSFYMDLKAVRSDDTAIYFCARQRSDYWDFDVWGSGTQVTVSS VL: DIQMTQSPSSLSARVGDTATITCQANGYLNWYQQRRGKAPKLLIYDGSKLERGVPARFSGRRWGQEYNLTINNLQPEDVATYFCQVYEFFGPGTRLDLKR | 13.1 µg/mL |

Summary for this binder, 1.1.104-1 (antibody, human IgG1, kappa, V domains shown) VH: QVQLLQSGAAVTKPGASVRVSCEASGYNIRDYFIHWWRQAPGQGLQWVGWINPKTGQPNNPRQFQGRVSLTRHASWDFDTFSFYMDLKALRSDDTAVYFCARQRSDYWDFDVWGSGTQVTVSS VL: DIQMTQSPSSLSASVGDTATITCQANGYLNWYQQRRGKAPKLLIYDGSKLERGVPSRFSGRRWGQEYTLTINNLQPEDIATYFCQVYEFFGPGTRLDLKR : Neutralization IC50 is > 50 µg/mL

Summary for this binder, 2.3.18-1 (antibody, human IgG1, kappa, V domains shown) VH: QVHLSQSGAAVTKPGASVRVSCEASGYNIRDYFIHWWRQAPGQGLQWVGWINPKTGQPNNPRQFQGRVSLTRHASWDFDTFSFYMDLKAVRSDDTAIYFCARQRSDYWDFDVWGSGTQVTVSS VL: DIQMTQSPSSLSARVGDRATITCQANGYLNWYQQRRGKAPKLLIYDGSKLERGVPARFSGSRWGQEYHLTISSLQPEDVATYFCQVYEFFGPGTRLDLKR : Neutralization IC50 is > 23 µg/mL

Summary for this binder, 3.1.9-1 (antibody, human IgG1, kappa, V domains shown) VH: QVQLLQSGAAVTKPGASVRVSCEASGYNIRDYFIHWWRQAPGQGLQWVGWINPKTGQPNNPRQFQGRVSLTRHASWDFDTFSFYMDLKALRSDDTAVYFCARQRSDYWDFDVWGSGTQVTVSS VL: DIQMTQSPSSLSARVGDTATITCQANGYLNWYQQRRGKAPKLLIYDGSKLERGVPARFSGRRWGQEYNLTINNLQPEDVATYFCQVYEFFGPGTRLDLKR : Neutralization IC50 is 3.54 µg/mL

Summary for this binder, 1.1.102-1 (antibody, human IgG1, kappa, V domains shown) VH: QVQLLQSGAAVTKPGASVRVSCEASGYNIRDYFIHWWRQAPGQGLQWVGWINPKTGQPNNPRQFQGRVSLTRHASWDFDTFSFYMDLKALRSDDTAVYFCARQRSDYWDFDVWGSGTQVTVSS VL: DIQMTQSPSSLSASVGDRATITCQANGYLNWYQQRRGKAPKLLIYDGSKLERGVPSRFSGSRWGQEYHLTISSLQPEDIATYFCQVYEFFGPGTRLDLKR : Neutralization IC50 is > 50 µg/mL

Summary for this binder, 2.3.15-1 (antibody, human IgG1, kappa, V domains shown) VH: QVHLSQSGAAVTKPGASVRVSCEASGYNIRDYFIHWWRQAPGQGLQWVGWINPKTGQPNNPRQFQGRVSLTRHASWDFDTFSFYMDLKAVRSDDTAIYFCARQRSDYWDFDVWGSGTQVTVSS VL: DIQMTQSPSSLSARVGDTATITCQANGYLNWYQQRRGKAPKLLIYDGSKLERGVPARFSGRRWGQEYTLTINNLQPEDVATYFCQVYEFFGPGTRLDLKR : Neutralization IC50 is > 50 µg/mL

Summary for this binder, 1.1.118-1 (antibody, human IgG1, kappa, V domains shown) VH: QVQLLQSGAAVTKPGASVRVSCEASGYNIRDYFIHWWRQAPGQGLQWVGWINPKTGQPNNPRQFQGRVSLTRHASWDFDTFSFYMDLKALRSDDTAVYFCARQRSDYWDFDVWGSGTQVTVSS VL: DIQMTQSPSSLSASVGDRATITCQANGYLNWYQQRRGKAPKLLIYDGSKLERGVPSRFSGSRWGQEYILTISSLQPEDIATYFCQVYEFFGPGTRLDLKR : Neutralization IC50 is > 50 µg/mL
